# Tested on: human platelet aggregation induced by ADP
# procedure text: In vitro test for inhibition of human platelet aggregation induced by ADP (platelet rich plasma)
# Assay type: cell-based
# measurement conditions: read-out: IC50, inhibition of human platelet aggregation induced by 5 μM ADP
property: IC50

**Query** Which IC50 value belongs to CCCCS(=O)(=O)N[C@@H](Cc1ccc(OCCCCC2CCNCC2)cc1)C(=O)O ?
**Result** 30 to 60 nM
